Target: MCH receptor (Homo sapiens, UniProt Q99705)
Assay: High throughput functional screening FLIPR/FDSS6000 (intracellular Ca2+ evoked by MCH)
Format: cell-based
Conditions: FLIPR/FDSS, antagonist activity vs 50 nM MCH; class by percent of control at 10^−7 M or IC50; read-out: class
ATTRIBUTE MEASURED: IC50

Example molecules with recorded IC50:
- MOLECULE: "Cc1cnc(N[C@H]2CC[C@@H](NC(=O)c3cccnc3S(=O)(=O)c3ccc(Br)cc3)CC2)nc1N(C)C"
  IC50: "50 to 200 nM"
- MOLECULE: "Cc1ccc(S(=O)(=O)c2ncccc2C(=O)N[C@H]2CC[C@@H](Nc3nc(C)cc(N(C)C)n3)CC2)cc1"
  IC50: "50 to 200 nM"
- MOLECULE: "COc1ccccc1S(=O)(=O)c1ncccc1C(=O)N[C@H]1CC[C@@H](Nc2nc(C)cc(N(C)C)n2)CC1"
  IC50: "> 200 nM"
- MOLECULE: "Cc1cnc(N[C@H]2CC[C@@H](NC(=O)N(C)c3ccccc3F)CC2)nc1N(C)C"
  IC50: "> 200 nM"
- MOLECULE: "Cc1cnc(N[C@H]2CC[C@@H](NC(=O)Nc3c(Cl)cc(Cl)cc3Cl)CC2)nc1N(C)C"
  IC50: "< 50 nM"
- MOLECULE: "COc1nc(N[C@H]2CC[C@@H](NC(=O)c3ccc(OC(F)(F)F)cc3)CC2)ncc1C"
  IC50: "> 200 nM"
- MOLECULE: "Cc1cnc(NC2CCC(C(=O)N[C@H](C)c3cccc(C(F)(F)F)c3)CC2)nc1N(C)C (some centres unmarked)"
  IC50: "< 50 nM"
- MOLECULE: "Cc1cc(N[C@H]2CC[C@@H](C(=O)N[C@@H](C)c3ccccc3C(F)(F)F)CC2)nc2ccccc12"
  IC50: "< 50 nM"
- MOLECULE: "Cc1cnc(N[C@H]2CC[C@@H](C(=O)N[C@H](C)c3ccc(OC(F)(F)F)cc3)CC2)nc1N(C)C"
  IC50: "50 to 200 nM"
- MOLECULE: "Cc1cc(N(C)C)nc(N[C@H]2CC[C@@H](NC(=O)NC(C)(C)c3cc(C(F)(F)F)cc(C(F)(F)F)c3)CC2)n1"
  IC50: "50 to 200 nM"

Here are 5 molecules. What values of IC50 were reported for them?
1. COc1ccccc1NC(=O)N[C@H]1CC[C@@H](Nc2ncc(C)c(N(C)C)n2)CC1
2. Cc1cc(N(C)C)nc(N[C@H]2CC[C@@H](NC(=O)N(C)C(C)(C)c3ccc(Cl)cc3)CC2)n1
3. Cc1cnc(N[C@H]2CC[C@@H](NC(=O)c3cccnc3S(=O)(=O)c3cccc(Cl)c3)CC2)nc1N(C)C
4. CCN(C(=O)N[C@H]1CC[C@@H](Nc2ncc(C)c(N(C)C)n2)CC1)c1ccccc1OC(F)(F)F
5. Cc1cc(N(C)C)nc(N[C@H]2CC[C@@H](NC(=O)c3cccnc3S(=O)(=O)c3ccccc3Br)CC2)n1

Result:
1. 50 to 200 nM
2. 50 to 200 nM
3. 50 to 200 nM
4. 50 to 200 nM
5. > 200 nM
